Numbers sourced from patent US20240092922A1.

Biological target: T1, Histidine-tagged human 4-1BB protein (h4-1BB-His) (human, UniProt Q07011 24-186)
T1 construct: not shown: histidine tag
Experiment: SPR (Biacore T200), antibody on Protein A chip, h4-1BB-His injected;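 note: dissociation phase followed for 300 s, Kd derived as koff divided by kon from the kinetic fit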
assayMetric: kon (M⁻¹ s⁻¹)
Form entry: value (M⁻¹ s⁻¹) — number only.

Example entries and their recorded answers appear below.
6A5-H3K3-IgG2 (antibody, V domains shown, humanized) VH: QVQLVQSGAEVKKPGSSVKLSCKASGYTFSSYWINWVKQAPGQGLEWIGNIYPSDSYTNYNQKFKDKATLTVDKSTSTAYMELSSLRSEDTAVYYCTRTWEFYYDSVFDYWGQGTTLTVSS VL: DIQMTQSPSSLSASLGERVTITCKASQDINSYLSWFQQKPGKAPKTLIYRANRLVDGVPSRFSGSGSGQDFTLTISSLQPEDIATYYCLQYDELPPTFGGGTKVEIK; 2.14e+06
45-7G9-mHvKv-IgG2 (antibody, V domains shown) VH: QVQLQQPGSALVRPGASVKLSCKASGYTFSNYWIHWVKQRHGQGLEWIGNIYPASDYTNYDEKFKNKGTLTVDTSSSTAYMHLSSLTSEDSAVYYCSRGYFGSLDYWGQGTSVTVSA VL: DILLTQSPAILSVNPGERVSFSCRASQPIGTGIHWYQQRTNGSPRLLIKSASESISGIPSRFSGSGSGTDFTLTINNVESDDVGDYYCQQSYSWPTTFGGGTKLKIN; 177000

# ---- query binder ----
// lookup kon for 6A5-H1K4-IgG2 (antibody, V domains shown, humanized) VH: QVQLVQSGAEVKKPGSSVKLSCKASGYTFSSYWINWVRQAPGQGLEWMGNIYPSDSYTNYNQKFKDRVTLTVDKSTSTAYMELSSLRSEDTAVYYCTRTWEFYYDSVFDYWGQGTLVTVSS VL: DIQMTQSPSSLSASLGERVTITCKASQDINSYLSWFQQKPGKAPKTLIYRANRLVDGVPSRFSGSGSGQDYTLTISSLQPEDIATYYCLQYDELPPTFGGGTKLEIK
2.16e+06
